# Tested on: BT-549 breast
# assay.text: NCI tumour cell line growth inhibition, 48 h
property: TGI (µM)
Report as a plain number; the unit µM is understood.

Worked examples follow.
# molecule, numeric.value
records = [
    ("CN(C)c1ccc2nc3ccc(=[N+](C)C)c([N+](=O)[O-])c-3sc2c1", 21.7),
    ("CC(C)c1ccc(COCc2cc(CN3CCCC3)c(O)c3ncccc23)cc1", 8.57),
    ("O=C(c1ccccc1)N(C(=S)NCCc1ccc(Cl)cc1)c1ccc(Cl)cc1", 25.8),
    ("CC1OC(OC2C(O)COC(OC3C(C)OC(OC4C(OC(=O)[C@]56CCC(C)(C)C[C@@H]5C5=CCC7[C@@]8(C)C[C@H](O)[C@H](OC9OC(CO)C(O)C(O)C9O)[C@@](C)(CO)[C@@H]8CC[C@@]7(C)[C@]5(C)CC6)OCC(O)C4O)C(O)C3OC3OCC(O)C(O)C3O)C2O)C(O)C(O)C1O (stereo partly specified)", 52.6),
]

TGI for NCCN1C(=O)c2cc(Cl)c(Cl)cc2C1(O)c1ccc(Cl)cc1 (stereo unspecified) is 13.4

# TGI (molecule: CC(=O)Oc1ccc2c3c1[C@H]1O[C@H]1c1cccc(c1-3)[C@@H]1O[C@H]21 ) is 23.6
